Biological target: T1, CRBN, Q96SW2;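 further: pooled lentiviral library of zinc finger degron-EGFP fusions in mCherry-positive Jurkat cells, FACS-sorted after compound exposure, with degron abundance counted by next-generation sequencing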
T1 chain: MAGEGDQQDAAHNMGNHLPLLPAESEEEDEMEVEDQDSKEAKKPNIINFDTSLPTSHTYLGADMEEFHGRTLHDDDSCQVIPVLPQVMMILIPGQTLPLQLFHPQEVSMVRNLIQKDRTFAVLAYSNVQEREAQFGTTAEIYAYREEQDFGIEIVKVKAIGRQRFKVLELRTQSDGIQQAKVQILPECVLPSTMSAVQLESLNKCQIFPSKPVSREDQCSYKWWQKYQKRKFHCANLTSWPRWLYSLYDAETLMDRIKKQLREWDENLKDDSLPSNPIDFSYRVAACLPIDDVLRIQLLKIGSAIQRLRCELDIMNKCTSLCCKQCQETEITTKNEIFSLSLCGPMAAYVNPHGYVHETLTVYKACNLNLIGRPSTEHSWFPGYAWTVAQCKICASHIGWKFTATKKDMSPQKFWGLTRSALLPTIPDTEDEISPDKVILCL
Assay: log2 fold change of degron read counts, EGFP-low vs EGFP+ sorted cells (limma voom), compound-induced degradation; higher = more compound-induced degradation of the degron-EGFP fusion; degrons are variants of IKZF1/3 zinc finger 2; compound dose not given here
Conditions: Jurkat; 18 h; compound: compound 22 (5-morpholino-thalidomide)
Whole data set: some 8,300 sequences, median “log2 fold change of degron read counts, EGFP-low vs EGFP+ sorted cells (limma voom), compound-induced degradation” near -1.1, cut for the highest 2% near 3.2. For the sample, the highest values were picked, then their nearest neighbours and some sequences at random.
Decision: log2 fold change of degron read counts >= -1 yields y, all other cases yield n.

**Query** Is it the case that FKCEVCGASFTQKGNLLRHIKL [46F_47K_49E_50V_52G_53A_54S_55F_67L_, Q9UKT9] has log2 fold change of degron read counts reaching or exceeding -1?
**Result** n

**Query** API: above_or_equal(metric=log2 fold change of degron read counts, cutoff=-1) for item FHCEICGRHFTQKGNLLRHIKL [46F_47H_49E_50I_52G_53R_54H_55F_67L_, Q9UKT9]
**Result** n

**Query** Exam item: decide whether the reported log2 fold change of degron read counts for LRCNQCGFVCTQKGNLLRHIKL [46L_47R_49N_50Q_52G_53F_54V_55C_67L_, Q9UKT9] is at least -1.
**Result** n

**Query** I'd appreciate it if you could say whether FQCDQCGAQFTQKGNLLRHIKL [46F_47Q_49D_50Q_52G_53A_54Q_55F_67L_, Q9UKT9] has log2 fold change of degron read counts at least equal to -1.
**Result** n

**Query** Could you please find out whether FSCEICGHYFTQKGNLLRHIKL [46F_47S_49E_50I_52G_53H_54Y_55F_67L_, Q9UKT9] has log2 fold change of degron read counts that meets -1 or exceeds it?
**Result** n

**Query** # check: log2 fold change of degron read counts of FLCNQCGHMFTQKGNLLRHIKL [46F_47L_49N_50Q_52G_53H_54M_55F_67L_, Q9UKT9] is greater than or equal to -1
**Result** n

**Query** Reported log2 fold change of degron read counts at or above -1? FQCPICGATFTQKGNLLRHIKL [46F_47Q_49P_50I_52G_53A_54T_55F_67L_, Q9UKT9]
**Result** y

**Query** Item FSCEVCGASFTQKGNLLRHIKL [46F_47S_49E_50V_52G_53A_54S_55F_67L_, Q9UKT9] with log2 fold change of degron read counts of -1 or above?
**Result** y

**Query** Please indicate if the recorded log2 fold change of degron read counts for FECEVCGASFTQKGNLLRHIKL [46F_47E_49E_50V_52G_53A_54S_55F_67L_, Q9UKT9] meets or exceeds -1.
**Result** n

**Query** Item FSCEVCGAHFTQKGNLLRHIKL [46F_47S_49E_50V_52G_53A_54H_55F_67L_, Q9UKT9] with log2 fold change of degron read counts of -1 or above?
**Result** y

**Query** Confirm if log2 fold change of degron read counts reported for the sequence FCCPICGATFTQKGNLLRHIKL [46F_47C_49P_50I_52G_53A_54T_55F_67L_, Q9UKT9] is -1 or above.
**Result** y

**Query** Has FRCSVCGHMFTQKGNLLRHIKL [46F_47R_49S_50V_52G_53H_54M_55F_67L_, Q9UKT9] a recorded log2 fold change of degron read counts greater than or equal to -1?
**Result** n

**Query** Does FDCEVCGASFTQKGNLLRHIKL [46F_47D_49E_50V_52G_53A_54S_55F_67L_, Q9UKT9] have a reported log2 fold change of degron read counts of at least -1?
**Result** y

**Query** Does the reported log2 fold change of degron read counts for FACPICGHTFTQKGNLLRHIKL [46F_47A_49P_50I_52G_53H_54T_55F_67L_, Q9UKT9] fall at or above the -1 mark?
**Result** n
